Could you please report measured OD 450 nm for the items listed next?
Molecular target: HCV E1E2 antigen, isolate UKN3A1.28c (hepatitis C virus, isolate UKN3A1.28c)
Assay: ELISA, Fab on E1E2 antigen
Put down the number, then write its unit next to it.

Return OD 450 nm for the following binder: Fab P1 (Fab, V domains shown) VH: EVQLLESGGGVVQPGGSLRLSCAASGFTFTSFTMHWVRQAPGKGLEWVALISHDGSNKDYADSVRGRFTVSRDNSKKMVYLQMSSLRPDDAAVYYCARGGPAYYTYSDTLTGYHNVVGDYWGQGTLVTVSS VL: ELTQSPGTLSLSPGERATLSCRASQVRGFLAWFQQKPGQAPRLLIYGASNRAPGIPDRFSGSGSGTDFTLTISRLEPEDFAVYYCQQYGDSPPITFGQGTRLEIKR
0.98 OD 450 nm

Return OD 450 nm for the following binder: Fab N1 (Fab, V domains shown) VH: VQLLEQSGPEVKKPGDSLRISCKMSGDSLVTTWIGWVRQKPGQGLEWMGIINPGDSSTNIYPGDSATRYGPSFQGQVTISIDKSTSTAYLQWNAVKPSDTGIYYCARHVPVPISGTFLWREREMHDFGYFDDWGQGTLVIVSS VL: ELTQSPGTLSLSPGERATLSCRASQSVSSSYLAWYQQKPGQAPRLLIYGASNRAAGIPDRFSGSGSGADFTLTISRLEPEDFAVYYCQQYGSSLITFGQGTRLEIKR
1.08 OD 450 nm

Return OD 450 nm for the following binder: Fab N4 (Fab, V domains shown) VH: VQLLEQSGPEVKKPGDSLRISCKMSGDSLVTTWIGWVRQKPGQGLEWMGIINPGDSSTNIYPGDSATRYGPSFQGQVTISIDKSTSTAYLQWNNVKASDTGIYYCARHVPVPISGTFLWREREMHDFGYFDDWGQGTLVIVSS VL: ELTLTQSPGTLSLSPGERATLSCRASQSVSNNYLAWYQQKPGQAPRLLIYGASSRATGIPDRFSGSGSGTGFTLIISRLEPEDFAVYYCQQYGSSSITFGQGTRLEIKR
1.73 OD 450 nm

Return OD 450 nm for the following binder: Fab P6 (Fab, V domains shown) VH: EVQLLESGGGVVQPGKSLTVSCAASGFTFSTFTMHWVRQAPGKWLEWVAVISHDGGTEHYADSVTGRFTISRDNSKNTLHMQMNSLRLEDTAVYFCARGGPAYYLYNDVLTGYYNVVGDFWGQGTLVTVSS VL: ELIQSPGTLFLSSGERATLSCRASQSVSSSNLAWFQHKSGRAPRLLIYGASNRAPDIPDRFSGSGSGTDFTISISRLEPEDFAVYYCQRYGDSPPITFGQGTRLEIKR
0.37 OD 450 nm

Return OD 450 nm for the following binder: Fab N2 (Fab, V domains shown) VH: VQLLEQSGPEVKKPGDSLRISCKMSGDSLVTTWIGWVRQKPGQGLEWMGIINPGDSSTNIYPGDSATRYGPSFQGQVTISIDKSTSTAYLQWNTVKPSDTGIYYCARHVPVPISGTFLWREREMHDFGYFDDWGQGTLVIVSS VL: ELTQSPGTLSLFPGERATLSCRASQSILGRYLAWYQQKGGRAPRLLIFGASKRATGIPDRFSGSGSGTDFTLTIGRLEPEDFAVYYCQHYGSSITFGQGTRLDIKR
1.36 OD 450 nm
